Every entry's value here was drawn from the Human Domainome abundance scans (Beltran et al. 2025).

B1: Zinc finger homeobox protein 4, residues 2183 to 2238; numbered along this chain, Q86UP3 (parent)
chain: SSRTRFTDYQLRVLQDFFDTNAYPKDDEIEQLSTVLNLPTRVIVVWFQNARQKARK

# Variants of: B1
# test_details: abundance fitness (aPCA) (normalised: wild type 0, dead -1); higher = more abundant; growth selection in yeast, the domain comes from the species named
# test_context: Homo sapiens
Mark NO for abundance fitness values under -0.2, and YES for everything at or above.

API: above_or_equal(metric=abundance fitness, cutoff=-0.2) for item K25L
NO

API: above_or_equal(metric=abundance fitness, cutoff=-0.2) for item K25M
NO

API: above_or_equal(metric=abundance fitness, cutoff=-0.2) for item T34W
NO

API: above_or_equal(metric=abundance fitness, cutoff=-0.2) for item T4C
NO

API: above_or_equal(metric=abundance fitness, cutoff=-0.2) for item N21R
YES

API: above_or_equal(metric=abundance fitness, cutoff=-0.2) for item I29V
YES

API: above_or_equal(metric=abundance fitness, cutoff=-0.2) for item Y9I
NO

API: above_or_equal(metric=abundance fitness, cutoff=-0.2) for item E28M
NO

API: above_or_equal(metric=abundance fitness, cutoff=-0.2) for item F17R
YES

API: above_or_equal(metric=abundance fitness, cutoff=-0.2) for item S2I
YES

API: above_or_equal(metric=abundance fitness, cutoff=-0.2) for item R5C
YES

API: above_or_equal(metric=abundance fitness, cutoff=-0.2) for item D8M
YES

API: above_or_equal(metric=abundance fitness, cutoff=-0.2) for item S33N
NO

API: above_or_equal(metric=abundance fitness, cutoff=-0.2) for item F18A
YES

API: above_or_equal(metric=abundance fitness, cutoff=-0.2) for item K25V
YES

API: above_or_equal(metric=abundance fitness, cutoff=-0.2) for item L14R
NO
